Where these numbers come from: ChEMBL document CHEMBL4411296

System: NCI-H522
Measurement protocol: Growth inhibition of human NCI-H522 cells assessed as cell growth at 10 uM after 48 hrs by sulforhodamine B assay relative to control
Format: functional
Study conditions: NCI-H522, 48 h, read-out: Activity
Assay metric: growth at 10 µM (%)
State just the number; it will be interpreted in %.

Example results:
Smiles	Target desc	Unit of measure	growth at 10 µM
COc1ccc(Cn2cc(C(=O)N/N=C3/C(=O)Nc4c(C)cccc43)nn2)cc1	NCI-H522	%	77.5
COc1ccc(Cn2cc(C(=O)N/N=C3/C(=O)Nc4ccc(C)cc43)nn2)cc1	NCI-H522	%	83.6

Query: What growth at 10 µM appears in the records for this molecule with NCI-H522? `COc1ccc(Cn2cc(C(=O)N/N=C3/C(=O)Nc4c(F)cccc43)nn2)cc1`
Result: 88.6

Query: What growth at 10 µM appears in the records for this molecule with NCI-H522? `COc1ccc(Cn2cc(C(=O)N/N=C3/C(=O)Nc4ccc(Br)cc43)nn2)cc1`
Result: 89.1

----------
System: MDA-MB-468
Measurement protocol: Growth inhibition of human MDA-MB-468 cells assessed as cell growth at 10 uM after 48 hrs by sulforhodamine B assay relative to control
Format: functional
Study conditions: MDA-MB-468, 48 h, read-out: Activity
Below, each entry is listed alongside its reported growth at 10 µM.

Example results:
Smiles	growth at 10 µM
COc1ccc(Cn2cc(C(=O)N/N=C3/C(=O)Nc4c(Cl)cccc43)nn2)cc1	98.6%
COc1ccc(Cn2cc(C(=O)N/N=C3/C(=O)Nc4ccc(Cl)cc43)nn2)cc1	97.2%
COc1ccc(Cn2cc(C(=O)N/N=C3/C(=O)Nc4ccc(F)cc43)nn2)cc1	87.8%
COc1ccc(Cn2cc(C(=O)N/N=C3/C(=O)Nc4c(C)cccc43)nn2)cc1	89.2%
COc1ccc(Cn2cc(C(=O)N/N=C3/C(=O)Nc4ccc(Br)cc43)nn2)cc1	96.8%

Query: Value lookup for growth at 10 µM; key = `COc1ccc(Cn2cc(C(=O)N/N=C3/C(=O)Nc4c(F)cccc43)nn2)cc1`
Result: 89.6%

Query: Value lookup for growth at 10 µM; key = `COc1ccc(Cn2cc(C(=O)N/N=C3/C(=O)Nc4ccc(F)c(Cl)c43)nn2)cc1`
Result: 108%

Query: Value lookup for growth at 10 µM; key = `COc1ccc(Cn2cc(C(=O)N/N=C3/C(=O)Nc4ccccc43)nn2)cc1`
Result: 99%

Query: Value lookup for growth at 10 µM; key = `COc1ccc(Cn2cc(C(=O)N/N=C3/C(=O)Nc4ccc(C)cc43)nn2)cc1`
Result: 99.2%

----------
Test system: SNB-19
Measurement protocol: Growth inhibition of human SNB19 cells assessed as cell growth at 10 uM after 48 hrs by sulforhodamine B assay relative to control
Assay type: functional
Study conditions: SNB-19, 48 h, read-out: Activity
Below, each entry is listed alongside its reported growth at 10 µM.

Example results:
Smiles	growth at 10 µM
COc1ccc(Cn2cc(C(=O)N/N=C3/C(=O)Nc4c(F)cccc43)nn2)cc1	94.2%
COc1ccc(Cn2cc(C(=O)N/N=C3/C(=O)Nc4c(C)cccc43)nn2)cc1	97.5%
COc1ccc(Cn2cc(C(=O)N/N=C3/C(=O)Nc4ccccc43)nn2)cc1	98%

Query: Value lookup for growth at 10 µM; key = `COc1ccc(Cn2cc(C(=O)N/N=C3/C(=O)Nc4ccc(F)c(Cl)c43)nn2)cc1`
Result: 101%

Query: Value lookup for growth at 10 µM; key = `COc1ccc(Cn2cc(C(=O)N/N=C3/C(=O)Nc4ccc(Cl)cc43)nn2)cc1`
Result: 98.5%

Query: Value lookup for growth at 10 µM; key = `COc1ccc(Cn2cc(C(=O)N/N=C3/C(=O)Nc4ccc(F)cc43)nn2)cc1`
Result: 96.8%

Query: Value lookup for growth at 10 µM; key = `COc1ccc(Cn2cc(C(=O)N/N=C3/C(=O)Nc4ccc(Br)cc43)nn2)cc1`
Result: 97.3%

Query: Value lookup for growth at 10 µM; key = `COc1ccc(Cn2cc(C(=O)N/N=C3/C(=O)Nc4c(Cl)cccc43)nn2)cc1`
Result: 93.6%

Query: Value lookup for growth at 10 µM; key = `COc1ccc(Cn2cc(C(=O)N/N=C3/C(=O)Nc4ccc(C)cc43)nn2)cc1`
Result: 98%

----------
System: MDA-MB-435S
Measurement protocol: cells
Study conditions: Homo sapiens, 48 h
Description: Antiproliferative activity against human MDA-MB-435S cells assessed as cell viability after 48 hrs by MTT assay
Assay metric: IC50 (µM)
State just the number; it will be interpreted in µM.

Query: Value lookup for IC50; key = `COc1ccc(Cn2cc(C(=O)N/N=C3/C(=O)Nc4c(C)cccc43)nn2)cc1`
Result: 9.94

----------
Test system: UO-31
Measurement protocol: Growth inhibition of human UO31 cells assessed as cell growth at 10 uM after 48 hrs by sulforhodamine B assay relative to control
Assay type: functional
Study conditions: UO-31, 48 h, read-out: Activity
growth at 10 µM below 90% gives N; growth at 10 µM at or above it gives Y.

Recorded results for 5 molecules are shown here.
Smiles	Assigned label
COc1ccc(Cn2cc(C(=O)N/N=C3/C(=O)Nc4ccc(C)cc43)nn2)cc1	Y
COc1ccc(Cn2cc(C(=O)N/N=C3/C(=O)Nc4c(F)cccc43)nn2)cc1	N
COc1ccc(Cn2cc(C(=O)N/N=C3/C(=O)Nc4ccccc43)nn2)cc1	N
COc1ccc(Cn2cc(C(=O)N/N=C3/C(=O)Nc4ccc(F)cc43)nn2)cc1	Y
COc1ccc(Cn2cc(C(=O)N/N=C3/C(=O)Nc4c(C)cccc43)nn2)cc1	N

Consider the record given below.
Query: I'd appreciate it if you could say whether `COc1ccc(Cn2cc(C(=O)N/N=C3/C(=O)Nc4c(Cl)cccc43)nn2)cc1` has growth at 10 µM at least equal to 90%.
Result: Y

----------
Tested on: HepG2
Measurement protocol: Antiproliferative activity against human HepG2 cells assessed as cell viability after 48 hrs by MTT assay
Study conditions: HepG2, 48 h
Assay metric: IC50 (µM)
State just the number; it will be interpreted in µM.

Query: What IC50 appears in the records for this compound with HepG2? `COc1ccc(Cn2cc(C(=O)N/N=C3/C(=O)Nc4c(C)cccc43)nn2)cc1`
Result: 8.14

----------
Tested on: NCI-H522
Measurement protocol: Growth inhibition of human NCI-H522 cells assessed as cell growth at 10 uM after 48 hrs by sulforhodamine B assay relative to control
Assay type: functional
Study conditions: NCI-H522, 48 h, read-out: Activity
Assay metric: growth at 10 µM (%)
State just the number; it will be interpreted in %.

Example results:
Smiles	growth at 10 µM (%)
COc1ccc(Cn2cc(C(=O)N/N=C3/C(=O)Nc4ccc(F)cc43)nn2)cc1	86.1
COc1ccc(Cn2cc(C(=O)N/N=C3/C(=O)Nc4ccc(F)c(Cl)c43)nn2)cc1	84

Query: What growth at 10 µM appears in the records for this compound with NCI-H522? `COc1ccc(Cn2cc(C(=O)N/N=C3/C(=O)Nc4ccc(Cl)cc43)nn2)cc1`
Result: 90.6

Query: What growth at 10 µM appears in the records for this compound with NCI-H522? `COc1ccc(Cn2cc(C(=O)N/N=C3/C(=O)Nc4c(Cl)cccc43)nn2)cc1`
Result: 84

Query: What growth at 10 µM appears in the records for this compound with NCI-H522? `COc1ccc(Cn2cc(C(=O)N/N=C3/C(=O)Nc4ccccc43)nn2)cc1`
Result: 87.8

----------
Test system: RXF 393
Measurement protocol: Growth inhibition of human RXF393 cells assessed as cell growth at 10 uM after 48 hrs by sulforhodamine B assay relative to control
Type: functional
Study conditions: RXF 393, 48 h, read-out: Activity
Below, each entry is listed alongside its reported growth at 10 µM.
State just the number; it will be interpreted in %.

Smiles	Assay metric	Reported
COc1ccc(Cn2cc(C(=O)N/N=C3/C(=O)Nc4ccc(C)cc43)nn2)cc1	growth at 10 µM	117
COc1ccc(Cn2cc(C(=O)N/N=C3/C(=O)Nc4c(Cl)cccc43)nn2)cc1	growth at 10 µM	109

Query: Value lookup for growth at 10 µM; key = `COc1ccc(Cn2cc(C(=O)N/N=C3/C(=O)Nc4ccc(Cl)cc43)nn2)cc1`
Result: 103

Query: Value lookup for growth at 10 µM; key = `COc1ccc(Cn2cc(C(=O)N/N=C3/C(=O)Nc4ccc(F)cc43)nn2)cc1`
Result: 110

----------
Tested on: HEK293
Measurement protocol: Antiproliferative activity against human HEK293 cells assessed as cell viability after 48 hrs by MTT assay
Type: cell-based
Study conditions: HEK293, 48 h
Assay metric: pIC50
The read-out pIC50 is expressed as -log10 of concentration in moles per litre.

Query: Value lookup for pIC50; key = `COc1ccc(Cn2cc(C(=O)N/N=C3/C(=O)Nc4c(C)cccc43)nn2)cc1`
Result: 3.70
